Reported Vd by item:
- Protocol text: Volume of distribution in Sprague-Dawley rat at 1 mg/kg, iv or 2 mg/kg, po
- Assay type: ADME, organism-based
- Particulars: in vivo

# Smiles str, Vd / L/kg
rows = [
    ("O=C(NC1CCN(S(=O)(=O)C[C@H]2CC[C@H](NCc3ccc(Cl)cc3)CC2)CC1)c1cc(C2CC2)on1", 14.7),
    ("O=C(NC1CCN(S(=O)(=O)[C@H]2CC[C@H](NCCCC(F)(F)F)CC2)CC1)c1cc(C2CC2)on1", 12.5),
    ("O=C(NC1CCN(S(=O)(=O)C[C@H]2CC[C@H](NCc3ccc(F)cn3)CC2)CC1)c1cc(C2CC2)on1", 12),
    ("O=C(NC1CCN(S(=O)(=O)C[C@H]2CC[C@H](NCc3ccccc3F)CC2)CC1)c1cc(C2CC2)on1", 9.4),
]

----------
- Protocol text: Volume of distribution in Sprague-Dawley rat at 0.5 mg/kg, iv or 2 mg/kg, po
- Format: ADME, organism-based
- Particulars: in vivo
Recorded metric: Vd (L/kg)

# Smiles str, Assay result
rows = [
    ("O=C(NC1CCN(S(=O)(=O)C[C@H]2CC[C@H](NCCCC(F)(F)F)CC2)CC1)c1cc(C2CC2)on1", 18.9),
    ("NCc1ccc(S(=O)(=O)N2CCC(NC(=O)c3cc(C4CC4)on3)CC2)cc1", 2.3),
    ("O=C(NC1CCN(S(=O)(=O)C[C@H]2CC[C@H](NCc3ccccc3)CC2)CC1)c1cc(C2CC2)on1", 16.1),
    ("O=C(NC1CCN(S(=O)(=O)c2ccc(CN3CCCC3)cc2)CC1)c1cc(C2CC2)on1", 6.7),
    ("O=C(NC1CCN(S(=O)(=O)C2CCNCC2)CC1)c1cc(C2CC2)on1", 4.5),
]

----------
Below, each entry is listed alongside its reported Papp.
- Protocol text: Permeability of compound
- Format: ADME
- Particulars: not told; read-out: permeability
Recorded metric: Papp (×10⁻⁶ cm/s)

# Smiles str, Bound operator, Assay result
data = [
    ("N[C@H]1CC[C@@H](S(=O)(=O)N2CCC(NC(=O)c3cc(C4CC4)on3)CC2)CC1", "<", 1),
    ("CN[C@H]1CC[C@H](CS(=O)(=O)N2CCC(NC(=O)c3cc(C4CC4)on3)CC2)CC1", "<", 1),
    ("CC(C)(C)CCN[C@H]1CC[C@H](CS(=O)(=O)N2CCC(NC(=O)c3cc(C4CC4)on3)CC2)CC1", "=", 18),
    ("Cc1ccc(CN[C@H]2CC[C@H](CS(=O)(=O)N3CCC(NC(=O)c4cc(C5CC5)on4)CC3)CC2)nc1", "=", 8.9),
    ("O=C(NC1CCN(S(=O)(=O)c2ccc(CN3CCCCC3)cc2)CC1)c1cc(C2CC2)on1", "=", 7.9),
    ("O=C(NC1CCN(S(=O)(=O)C[C@H]2CC[C@H](NCc3ccc(Cl)cn3)CC2)CC1)c1cc(C2CC2)on1", "=", 22),
    ("O=C(NC1CCN(S(=O)(=O)C[C@H]2CC[C@H](NCCCC(F)(F)F)CC2)CC1)c1cc(C2CC2)on1", "=", 14),
    ("NCCS(=O)(=O)N1CCC(NC(=O)c2cc(C3CC3)on2)CC1", "<", 1),
]

----------
- Protocol text: AUC in Sprague-Dawley rat at 2 mg/kg, po
- Type: ADME, organism-based
- Particulars: Sprague-Dawley, in vivo, read-out: AUC
The entries below come with measured AUC values attached.

# Smiles str, AUC / ng·h/mL
data = [
    ("O=C(NC1CCN(S(=O)(=O)c2ccc(CN3CCCC3)cc2)CC1)c1cc(C2CC2)on1", 295),
    ("O=C(NC1CCN(S(=O)(=O)C[C@H]2CC[C@H](NCCCC(F)(F)F)CC2)CC1)c1cc(C2CC2)on1", 676),
    ("O=C(NC1CCN(S(=O)(=O)C[C@H]2CC[C@H](NCc3ccc(F)cn3)CC2)CC1)c1cc(C2CC2)on1", 578),
    ("O=C(NC1CCN(S(=O)(=O)[C@H]2CC[C@H](NCCCC(F)(F)F)CC2)CC1)c1cc(C2CC2)on1", 967),
    ("O=C(NC1CCN(S(=O)(=O)C[C@H]2CC[C@H](NCc3ccc(Cl)cc3)CC2)CC1)c1cc(C2CC2)on1", 365),
    ("O=C(NC1CCN(S(=O)(=O)C[C@H]2CC[C@H](NCc3ccccc3)CC2)CC1)c1cc(C2CC2)on1", 149),
    ("O=C(NC1CCN(S(=O)(=O)C2CCNCC2)CC1)c1cc(C2CC2)on1", 123),
]

----------
# Lookup of reported half-life keyed by entry
- Protocol text: Half life in Sprague-Dawley rat at 1 mg/kg, iv or 2 mg/kg, po
- Format: ADME, organism-based
- Particulars: in vivo
Recorded metric: half-life (h)

# Smiles str, Recorded metric, Unit annotation, Assay result
records = [
    ("O=C(NC1CCN(S(=O)(=O)C[C@H]2CC[C@H](NCc3ccc(Cl)cc3)CC2)CC1)c1cc(C2CC2)on1", "half-life", "h", 7.3),
    ("O=C(NC1CCN(S(=O)(=O)C[C@H]2CC[C@H](NCc3ccc(F)cn3)CC2)CC1)c1cc(C2CC2)on1", "half-life", "h", 10.8),
    ("O=C(NC1CCN(S(=O)(=O)C[C@H]2CC[C@H](NCc3ccccc3F)CC2)CC1)c1cc(C2CC2)on1", "half-life", "h", 1.7),
    ("O=C(NC1CCN(S(=O)(=O)[C@H]2CC[C@H](NCCCC(F)(F)F)CC2)CC1)c1cc(C2CC2)on1", "half-life", "h", 8.6),
]

----------
- Protocol text: Clearance in Sprague-Dawley rat at 1 mg/kg, iv or 2 mg/kg, po
- Type: ADME, organism-based
- Particulars: in vivo
Recorded metric: clearance

# Smiles str, Assay result
measured = [
    ("O=C(NC1CCN(S(=O)(=O)[C@H]2CC[C@H](NCCCC(F)(F)F)CC2)CC1)c1cc(C2CC2)on1", "20 mL/min/kg"),
    ("O=C(NC1CCN(S(=O)(=O)C[C@H]2CC[C@H](NCc3ccc(Cl)cc3)CC2)CC1)c1cc(C2CC2)on1", "36 mL/min/kg"),
    ("O=C(NC1CCN(S(=O)(=O)C[C@H]2CC[C@H](NCc3ccc(F)cn3)CC2)CC1)c1cc(C2CC2)on1", "17 mL/min/kg"),
]

----------
Collected Papp values appear next to each entry.
- Protocol text: Permeability of compound
- Type: ADME
- Particulars: not told; read-out: permeability
Recorded metric: Papp (×10⁻⁶ cm/s)

# Molecule, Recorded metric, Unit annotation, Assay result
measured = [
    ("O=C(NC1CCN(S(=O)(=O)C[C@H]2CC[C@H](NCc3cccc(F)c3)CC2)CC1)c1cc(C2CC2)on1", "Papp", "×10⁻⁶ cm/s", 20),
    ("O=C(NC1CCN(S(=O)(=O)c2ccc(CN3CCC3)cc2)CC1)c1cc(C2CC2)on1", "Papp", "×10⁻⁶ cm/s", 16),
    ("O=C(NC1CCN(S(=O)(=O)c2ccc(CN3CCCC3)cc2)CC1)c1cc(C2CC2)on1", "Papp", "×10⁻⁶ cm/s", 13),
    ("CCN(CCCC(F)(F)F)[C@H]1CC[C@H](CS(=O)(=O)N2CCC(NC(=O)c3cc(C4CC4)on3)CC2)CC1", "Papp", "×10⁻⁶ cm/s", 41),
    ("Cc1cccc(CN[C@H]2CC[C@H](CS(=O)(=O)N3CCC(NC(=O)c4cc(C5CC5)on4)CC3)CC2)c1", "Papp", "×10⁻⁶ cm/s", 17),
    ("O=C(NC1CCN(S(=O)(=O)C[C@H]2CC[C@H](NCc3cccnc3)CC2)CC1)c1cc(C2CC2)on1", "Papp", "×10⁻⁶ cm/s", 5.5),
    ("O=C(NC1CCN(S(=O)(=O)C[C@H]2CC[C@H](NCCC(F)(F)F)CC2)CC1)c1cc(C2CC2)on1", "Papp", "×10⁻⁶ cm/s", 16),
    ("O=C(NC1CCN(S(=O)(=O)C2CCNC2)CC1)c1cc(C2CC2)on1 (centres undefined)", "Papp", "×10⁻⁶ cm/s", 2.4),
    ("CS(=O)(=O)N1CCC(NC(=O)c2cc(C3CC3)on2)CC1", "Papp", "×10⁻⁶ cm/s", 12),
]

----------
- Protocol text: Half life in Sprague-Dawley rat at 0.5 mg/kg, iv or 2 mg/kg, po
- Assay type: ADME, organism-based
- Particulars: in vivo
# half-life annotations

# Smiles str, half-life (h)
rows = [
    ("O=C(NC1CCN(S(=O)(=O)C[C@H]2CC[C@H](NCc3ccccc3)CC2)CC1)c1cc(C2CC2)on1", 3.6),
    ("NCc1ccc(S(=O)(=O)N2CCC(NC(=O)c3cc(C4CC4)on3)CC2)cc1", 0.2),
    ("O=C(NC1CCN(S(=O)(=O)c2ccc(CN3CCCC3)cc2)CC1)c1cc(C2CC2)on1", 1.7),
    ("O=C(NC1CCN(S(=O)(=O)C[C@H]2CC[C@H](NCCCC(F)(F)F)CC2)CC1)c1cc(C2CC2)on1", 12.8),
    ("O=C(NC1CCN(S(=O)(=O)C2CCNCC2)CC1)c1cc(C2CC2)on1", 2.7),
]
